Target: D(2) dopamine receptor (Homo sapiens)
Sequence (P14416 whole entry): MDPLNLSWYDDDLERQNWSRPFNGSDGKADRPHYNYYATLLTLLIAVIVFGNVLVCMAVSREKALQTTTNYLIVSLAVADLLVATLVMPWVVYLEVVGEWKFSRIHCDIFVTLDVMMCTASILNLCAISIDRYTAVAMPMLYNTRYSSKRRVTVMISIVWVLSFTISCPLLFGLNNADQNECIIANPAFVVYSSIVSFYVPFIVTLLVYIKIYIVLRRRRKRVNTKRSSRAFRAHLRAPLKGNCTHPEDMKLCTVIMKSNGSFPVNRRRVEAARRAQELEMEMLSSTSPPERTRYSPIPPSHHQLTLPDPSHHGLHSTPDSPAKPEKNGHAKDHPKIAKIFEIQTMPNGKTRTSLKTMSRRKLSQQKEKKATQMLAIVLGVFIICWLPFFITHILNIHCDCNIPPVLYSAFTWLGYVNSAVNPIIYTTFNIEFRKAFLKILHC
Experiment: Intrinsic activity at human dopamine D2S receptor expressed in HEK293 cells co-transfected with Galpha0i assessed as [35S]GTPgammaS binding after 30 mins by [35S]GTPgammaS incorporation assay
Type: functional, cell-based
Exam item: assign YES to entries whose EC50 is below 800 nM and NO to entries at or above 800 nM. Note that a value of exactly 800 nM receives NO.

Please review the entries below; each comes with its answer.
Task: Check if EC50 falls below 800 nM for CCCCn1cc(CCCOc2ccc(C(=O)NCCCCN(CCC)[C@@H]3CCc4c(O)cccc4C3)cc2OC)nn1 .
Output: NO

Task: How about this compound: C#CC1=CC[C@@H](N(CCC)CCCCNC(=O)c2ccc(OCCCc3cn(CCCC)nn3)c(OC)c2)CO1
Output: YES

Task: How about this compound: C#CC1=CC[C@H](N(CCC)CCCCNC(=O)c2ccc(OCCCc3cn(CCCC)nn3)c(OC)c2)CO1
Output: YES

Task: How about this compound: CCCCn1cc(CCCOc2ccc(C(=O)NCCCCN(CCC)[C@H]3CCc4c(O)cccc4C3)cc2OC)nn1
Output: YES

Now consider a different compound.
Task: Check if EC50 falls below 800 nM for CCCCn1cc(CCCOc2ccc(C(=O)NCCCCN(CCC)CCc3ccc(O)c4[nH]c(=O)ccc34)cc2OC)nn1 .
Output: NO
